- System: K4 kissing-loop RNA reporter;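 note: bound reporter read as fluorescence of individual clusters on recovered sequencing chips by microscopy, with normalized cluster intensities fitted with a binding model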
- protocol.description: apparent KD of K4 kissing-loop reporter; higher = weaker reporter binding
- condition.parameters: Eterna round: R107; input ligand: FMN 200 uM
recorded.metric: apparent KD of K4 kissing-loop reporter (nM)
Your answer should be a plain number; it is taken to be in nM.

Below, each entry is followed by its recorded apparent KD of K4 kissing-loop reporter result.
UACAUUGCAGUCUUCUUCGUCCUAGAUGACUAGGAUAUCAGGAAACUGAGAAGGAGUCACUGCAGUGAUGUUGCAGCUAGGACGA [KL-SSFMN-A9] :: 110
AAGUGAUGUUGUAGUGAUGUUGUGAUGUUGCAGGAUAUAUAGUGAUGUAGAAGGGUAUGUGCAGUGUUGUUAUUUGAGUGUUGAU [zffdmullin] :: 89.7
GCGGCGGGCCAAGGAUAUAUUUUGGAGUGAUGUUGUUCAUUUAUUUGAGCUAGUGAUGUUGGUCGAAUAGAAGGUGGCCCGCCGC [whbob_Ex_FMNB__2th219] :: 65.8

Entry AAAUGUUUGUAUUUGAACAAUUUCUUUAGGGAGGAUAUUGGUAAUACAAGAAGGCCCUGAUGGGAGUGAUGUUCCCAUAACGCGG [Exclusion FMN A GF15] has what apparent KD of K4 kissing-loop reporter?
46.7

I have this sequence here, GUCCCAGUGAUGUUGGUAGGCGGGCGGGAUACCAGCGGAGACUCACGCCCUUGGCAGCCCACAUAUCCCGCGUAGGGAUUAGCCC [Same State - Theophylline A (Freestyle 23)] , and I need its recorded apparent KD of K4 kissing-loop reporter.
285

Which measured apparent KD of K4 kissing-loop reporter value corresponds to GCCGUACGCAUGGAUACCAGUUGCGAAGUGAUGUUUCGGGCGAUCAAAGGAUCGCCCUACAACCCUUGGCAGCCAUGCGUACGGC ?
158

====

The following sequences are shown together with reported apparent KD of MS2 coat protein values.
- System: MS2 coat protein
- protocol.description: apparent KD of MS2 coat protein; higher = weaker reporter binding
- condition.parameters: Eterna round: R107; input ligand: theophylline 20 uM
Answer as a quantity: numeral, then unit.

Which apparent KD of MS2 coat protein is reported for this sequence? AAAAGUGGGUCAAUUAUUUAAACUUCAGAAGGAGCGUGAUGUUUCACAGGUAGGUCGCUGAUAACAUGAGGAUCACCCAUGUAUU [JR_ExcArginiA_Sub007]
0.0598 µM

Value lookup for apparent KD of MS2 coat protein; key = GGGCCUACCUGAAGGAGCGACAUGAGGAUCACCCAUGUCUCCCGUUAUGGGAGUUCUUUAGGUCAGGUAGGUCGCAGGUAGGGCC [#1 Exclusion - Arginine B Attempt #4 (Inspired by Omei)]
0.017 µM

Any idea what its apparent KD of MS2 coat protein is? The sequence is UAUCCACAUGAGGAUCACCCAUGUUAGGAAGGAGCGGUGAGUGCACCAGGUAGGUCGCCUAGCUGAGGACUGUCGGUGGAUUCGU [Exclusion - Arginine A (Freestyle 20)]
0.0673 µM

Entry under review: ACACCGAAAGGUGCAUUUACCUUAUCAGAUACCAGACUUUACGUUGUCCCUUGGCAGCUGUAUCACAUGAGGAUCACCCAUGUUG [JR_SSTheophyA_Sub011] . Reported apparent KD of MS2 coat protein?
0.0188 µM

Quick check: apparent KD of MS2 coat protein of GGCACAUAGUCGGCCGCCACUAGAAUAAGAAGGGAAAACAUGAGGAUCACCCAUGUAAAAGGGACUAGGACCGGGACUAUGUGCC [Shrew] ?
0.0182 µM
